- assay-target: T1, human insulin receptor on human IM-9 cells (human, UniProt P06213 28-1382)
- T1 construct: whole, on cells; The natural receptor is an alpha2-beta2 tetramer processed from one precursor; also called IR; human IR
- T1 sequence (P06213 28-1382): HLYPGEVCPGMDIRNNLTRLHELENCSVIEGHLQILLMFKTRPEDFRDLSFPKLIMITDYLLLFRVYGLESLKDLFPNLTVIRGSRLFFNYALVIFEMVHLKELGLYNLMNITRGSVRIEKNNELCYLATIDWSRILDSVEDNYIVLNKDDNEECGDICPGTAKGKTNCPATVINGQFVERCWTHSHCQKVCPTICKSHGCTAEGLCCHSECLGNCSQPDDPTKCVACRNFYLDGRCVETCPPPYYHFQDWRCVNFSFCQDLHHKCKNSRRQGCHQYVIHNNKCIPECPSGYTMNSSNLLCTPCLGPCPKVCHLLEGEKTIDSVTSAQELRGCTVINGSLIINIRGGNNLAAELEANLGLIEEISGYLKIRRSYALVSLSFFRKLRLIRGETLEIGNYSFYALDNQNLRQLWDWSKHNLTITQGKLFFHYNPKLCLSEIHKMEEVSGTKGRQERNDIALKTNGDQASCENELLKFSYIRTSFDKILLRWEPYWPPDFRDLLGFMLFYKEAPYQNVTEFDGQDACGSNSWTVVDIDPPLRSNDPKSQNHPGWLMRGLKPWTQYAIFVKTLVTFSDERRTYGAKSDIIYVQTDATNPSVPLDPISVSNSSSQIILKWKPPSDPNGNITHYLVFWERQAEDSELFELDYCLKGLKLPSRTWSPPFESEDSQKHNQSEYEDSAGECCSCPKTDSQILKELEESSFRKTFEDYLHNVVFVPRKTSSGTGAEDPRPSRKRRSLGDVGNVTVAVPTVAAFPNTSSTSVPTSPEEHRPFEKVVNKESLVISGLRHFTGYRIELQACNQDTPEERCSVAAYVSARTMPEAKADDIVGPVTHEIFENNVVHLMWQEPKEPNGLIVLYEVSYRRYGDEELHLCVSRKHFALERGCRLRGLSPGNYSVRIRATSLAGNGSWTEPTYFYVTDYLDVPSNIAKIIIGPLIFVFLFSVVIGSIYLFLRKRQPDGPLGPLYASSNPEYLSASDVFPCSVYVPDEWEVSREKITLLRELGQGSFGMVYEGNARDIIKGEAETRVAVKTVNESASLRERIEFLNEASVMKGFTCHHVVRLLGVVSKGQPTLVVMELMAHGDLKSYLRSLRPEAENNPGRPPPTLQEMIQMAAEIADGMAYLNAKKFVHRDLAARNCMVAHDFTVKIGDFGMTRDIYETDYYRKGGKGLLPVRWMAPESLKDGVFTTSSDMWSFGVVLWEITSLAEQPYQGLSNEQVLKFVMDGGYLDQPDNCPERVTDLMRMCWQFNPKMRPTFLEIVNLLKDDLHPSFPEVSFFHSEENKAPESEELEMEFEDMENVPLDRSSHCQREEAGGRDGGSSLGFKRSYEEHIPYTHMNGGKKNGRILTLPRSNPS
- run-description: flow cytometry competition with biotinylated RHI on IM-9 cells at 4 C
- Protocol: Cultures of IM-9 cells were centrifuged at 250×g (˜1000 rpm) for 10 min to pellet the cells. […] The insulin-Fc protein was diluted in FACS buffer in 1:3 serial dilutions as 2× concentrations in 1.2 mL tubes (approx. 60 μL volume of each dilution), and the solutions were kept cold on ice until ready for pipetting. […] The V-bottom plates containing cells were then analyzed on a Guava 8-HT flow cytometer (Millipore). […]
Recorded IC50 by entry
Give the value, in units of nM, as a plain number.

[[record]]
binder = "insulin-Fc fusion protein of SEQ ID NO: 29 (SEQ ID NO: 24 with des hinge D and the mutation cNg-NB138-K; canine IgGB Fc fragment SEQ ID NO: 15) (Fc fusion, Made in HEK293 cells; Non-glycosylated homodimer, 98.1% homodimer; also called cNg-K) FVNQHLCGSDLVEALALVCGERGFFYTDPTGGGPRRGIVEQCCHSICSLYQLENYCNGGGGAGGGGCPKCPAPEMLGGPSVFIFPPKPKDTLLIARTPEVTCVVVDLDPEDPEVQISWFVDGKQMQTAKTQPREEQFKGTYRVVSVLPIGHQDWLKGKQFTCKVNNKALPSPIERTISKARGQAHQPSVYVLPPSREELSKNTVSLTCLIKDFFPPDIDVEWQSNGQQEPESKYRTTPPQLDEDGSYFLYSKLSVDKSRWQRGDTFICAVMHEALHNHYTQESLSHSPG"
reading = 147

[[record]]
binder = "insulin-Fc fusion protein of SEQ ID NO: 24 (insulin polypeptide SEQ ID NO: 4, linker SEQ ID NO: 8, canine IgGB Fc fragment SEQ ID NO: 11) (Fc fusion, Made in HEK293 cells; Disulfide-linked homodimer, 93% homodimer; Glycosylated at cNg-NB139) FVNQHLCGSDLVEALALVCGERGFFYTDPTGGGPRRGIVEQCCHSICSLYQLENYCNGGGGAGGGGDCPKCPAPEMLGGPSVFIFPPKPKDTLLIARTPEVTCVVVDLDPEDPEVQISWFVDGKQMQTAKTQPREEQFNGTYRVVSVLPIGHQDWLKGKQFTCKVNNKALPSPIERTISKARGQAHQPSVYVLPPSREELSKNTVSLTCLIKDFFPPDIDVEWQSNGQQEPESKYRTTPPQLDEDGSYFLYSKLSVDKSRWQRGDTFICAVMHEALHNHYTQESLSHSPG"
reading = 28

[[record]]
binder = "insulin-Fc fusion protein of SEQ ID NO: 27 (SEQ ID NO: 24 with the mutation cNg-NB139-S; canine IgGB Fc fragment SEQ ID NO: 14) (Fc fusion, Made in HEK293 cells; Non-glycosylated homodimer, 98.3% homodimer; also called cNg-S) FVNQHLCGSDLVEALALVCGERGFFYTDPTGGGPRRGIVEQCCHSICSLYQLENYCNGGGGAGGGGDCPKCPAPEMLGGPSVFIFPPKPKDTLLIARTPEVTCVVVDLDPEDPEVQISWFVDGKQMQTAKTQPREEQFSGTYRVVSVLPIGHQDWLKGKQFTCKVNNKALPSPIERTISKARGQAHQPSVYVLPPSREELSKNTVSLTCLIKDFFPPDIDVEWQSNGQQEPESKYRTTPPQLDEDGSYFLYSKLSVDKSRWQRGDTFICAVMHEALHNHYTQESLSHSPG"
reading = 145


Now let's try a different one.
Req: Entry insulin-Fc fusion protein of SEQ ID NO: 20 (insulin polypeptide SEQ ID NO: 4, linker SEQ ID NO: 8, canine IgGA Fc fragment SEQ ID NO: 10) (Fc fusion) FVNQHLCGSDLVEALALVCGERGFFYTDPTGGGPRRGIVEQCCHSICSLYQLENYCNGGGGAGGGGRCTDTPPCPVPEPLGGPSVLIFPPKPKDILRITRTPEVTCVVLDLGREDPEVQISWFVDGKEVHTAKTQSREQQFNGTYRVVSVLPIEHQDWLTGKEFKCRVNHIDLPSPIERTISKARGRAHKPSVYVLPPSPKELSSSDTVSITCLIKDFYPPDIDVEWQSNGQQEPERKHRMTPPQLDEDGSYFLYSKLSVDKSRWQQGDPFTCAVMHETLQNHYTDLSLSHSPG needs its IC50 filled in; supply it.
Resp: 2730

Cited source for all entries: patent US20220098266A1
